Ref: PubChem BioAssay (NCI)

# Experiment notes: NCI Yeast Anticancer Drug Screen. Data for the bub3 strain (AID 167)
# Settings: S. cerevisiae bub3 mutant strain, at 11.0 µM
Compounds without any hit were thinned out: in the full panel of roughly 79,000, 15% have a hit. Activity calls are given as the source filed them. Rule as the data show it: active = growth inhibition above about 70%; inactive = the rest.
Return exactly one item of label 1 (active), label 0 (inactive)

Q. What is the recorded call for this molecule in the test? O=C(O)c1[nH]c(=O)c2ccccc2c1Nc1ccccc1
A. label 0

Q. # outcome recorded in this test, key = COc1cc(/C=C/c2sc3ccccc3[n+]2C)ccc1N(C)C
A. label 0

Q. Short answer needed: outcome of this test for c1ccc2c(c1)Cn1c-2nc2ccccc21 ?
A. label 0

Q. Short answer needed: outcome of this test for CC1OC(OC2CCCc3c(O)c4c(c(O)c32)C(=O)c2ccccc2C4=O)CC(N)C1O (stereo not drawn) ?
A. label 0

Q. Hi, do you know how Cn1c2nc3ccccc3c-2nc2ccccc21 came out in this test?
A. label 1

Q. Test call, this molecule: CCCCCCCCN1C(=O)c2ccccc2C1=O
A. label 0

Q. Hi team, can someone confirm the assay call for CO[C@@]12[C@H](COC(N)=O)C3=C(C(=O)C(C)=C(N)C3=O)N1C[C@@H]1N[C@@H]12 ?
A. label 0

Q. Any idea what this test logged for CC(=O)Oc1ccc(N2C(=O)C3c4[nH]c5ccccc5c4C4CCC(C(C)(C)C)CC4C3C2=O)cc1 (stereo not drawn) ?
A. label 1

Q. Any idea what this test logged for O/N=C/C1c2ccccc2-c2ccccc21 ?
A. label 0

Q. Hi team, can someone confirm the assay call for COc1cc(N)ccc1Nc1c2ccccc2nc2ccccc12 ?
A. label 0

Q. Field: outcome | Entry: Cc1ccc(Nc2c3c(c(C#N)c4nc5ccccc5n24)CCCC3)cc1
A. label 0

Q. Hey, what did the test say about N#C/C(=C1C=C(Br)/C(=N\O)C=C\1Cl)c1cccc2ccccc12 ?
A. label 1

Q. Hi team, can someone confirm the assay call for CC1CCC2(C(=O)O)CCC3(C)C(=CCC4C5(C)CC(O)C(O)C(C)(CO)C5C(O)CC43C)C2C1C (stereo not drawn) ?
A. label 0

Q. For this molecule, state the assay outcome: Cc1cc(O)c2c(c1)C(=O)C=C(Br)C2=O
A. label 1

Q. Check the results log: what was the call for COC(=O)CSc1nnc(CSc2ccc(Cl)cc2)n1-c1ccccc1 ?
A. label 0

Q. Recorded test call requested for COc1cc(CNc2ccc(C(C)C)cc2)cc(OC)c1OC
A. label 0

Q. Any idea what this test logged for O=c1[nH]c2ccccc2c2nc3ccccc3n12 ?
A. label 0

Q. What outcome does the record of this test show for O=[N+]([O-])/C(C(Cl)=C(Cl)Cl)=C1/OCCS1 ?
A. label 1

Q. Write down the call the test reported for this molecule. Item: COC(=O)c1n[nH]c(C)c1N=NN(C)CCC#N
A. label 1

Q. Hi team, can someone confirm the assay call for Nc1nc(N)c2c(n1)CCC(S(=O)(=O)c1ccc3ccccc3c1)C2 (stereo not drawn) ?
A. label 0

Q. # lookup: test call for CC(C)c1cccc(O)c(=O)c1
A. label 0

Q. What is the recorded call for this molecule in the test? CCC(c1ccc(O)cc1)C(CC)c1ccc(OCCN)cc1 (stereo not drawn)
A. label 0

Q. Name the outcome recorded for O=C(/C=N/O)Nc1cc(Cl)c(Cl)cc1Cl in the assay.
A. label 0
